Reported values of TGI for individual entries
# Tested on: OVCAR-3 ovarian
# RUN_DESCRIPTION: NCI tumour cell line growth inhibition, 48 h
Just the number please, in µM, no unit attached.

MOLECULE	TGI [µM]
C=C1c2nc3ccccc3n2C=C(c2ccc(Cl)cc2)N1c1ccc(OC)cc1	25.7

Notebook: O=C(/C=C/c1ccccc1)c1ccc(NCc2nc3ccccc3[nH]2)cc1 , TGI read as 9.57

Notebook: COc1ccc(CC2COc3cc(O)cc(O)c3C2=O)cc1O (stereo not given) , TGI read as 6.87

Notebook: Cc1ccc(C2=CC(=O)/C(=C\C(=O)c3ccc(Cl)cc3)O2)cc1 , TGI read as 18.4

* * *

# System: XF 498 CNS
# RUN_DESCRIPTION: NCI tumour cell line growth inhibition, 48 h
Reported values of TGI for individual entries
Just the number please, in µM, no unit attached.

MOLECULE	MEASURED_ATTRIBUTE	MEASURED_VALUE
CSC(=S)N/N=C/c1nccc2ccccc12	TGI	16.4

Notebook: CC(C)(Oc1ccc(/C=C/C(=O)c2ccc(Cl)cc2)cc1)C(=O)Nc1c(Cl)cccc1Cl , TGI read as 37.7

Notebook: Cn1c2c(c3ccccc31)CCN(CCN1CCN(c3cccc(Cl)c3)CC1)C2=O , TGI read as 34.5

Notebook: CCOC(=O)C1SC(=Nc2ccc(Cl)cc2)N=C1C (stereo unspecified) , TGI read as 34.2

Notebook: C=C(CN(C)C)C(=O)c1ccccc1[N+](=O)[O-] , TGI read as 31.2

* * *

# Tested on: M19-MEL melanoma
# RUN_DESCRIPTION: NCI tumour cell line growth inhibition, 48 h
MEASURED_ATTRIBUTE: TGI

Notebook: CCCCN(CC)CC(C(C)=O)c1c(O)c2ccccc2oc1=O (stereo unspecified) , TGI read as > 100 µM

Notebook: CC(C)(C)C(=O)[CH-]C(=O)C(C)(C)C.CC(C)(C)C(=O)[CH-]C(=O)C(C)(C)C.CN(C)c1ccc([O-])cc1.CN(C)c1ccc([O-])cc1.[Ti+4] , TGI read as > 100 µM

Notebook: CN(C)CC1CCC(CN(C)C)C1=O (stereo unspecified) , TGI read as 7.96 µM

Notebook: CSc1nnc(COc2ccc(Cl)cc2)o1 , TGI read as > 100 µM

* * *

# Tested on: SN12C renal
# RUN_DESCRIPTION: NCI tumour cell line growth inhibition, 48 h
MEASURED_ATTRIBUTE: GI50

Recorded results for 4 compounds are shown here.
COMPOUND	SUBJECT_OF_TEST	GI50
C=C(CN(C)C)C(=O)c1ccccc1[N+](=O)[O-]	SN12C renal	3.74 µM
C[C@H]1CCCC(O)C(O)[C@@H]2C[C@H](O[Si](C)(C)C(C)(C)C)C[C@H]2[C@H](O[Si](C)(C)C(C)(C)C)C(O)C(O)C(=O)O1 (stereo not given in full)	SN12C renal	34.6 µM
O=C(Nc1ccc(Cl)c(Cl)c1)NS(=O)(=O)c1cnccc1Oc1ccc(F)cc1	SN12C renal	3.38 µM
COc1ccc(/C(=N\NC(=S)NN)C(c2ccc(OC)cc2)C2C(=O)Oc3ccccc32)cc1 (stereo not given)	SN12C renal	> 100 µM

Notebook: COC(=O)C1(C)Cc2cc(OC(C)=O)c(OC(C)=O)cc2N1 (stereo not given) , GI50 read as 17 µM
